Item-by-item account of TGI
system: HCC-2998 colon; assay: NCI tumour cell line growth inhibition, 48 h

COc1cc(C2SCC(=O)N2c2ccc(-c3ccc(-n4c(-c5ccccc5)nc5ccccc5c4=O)cc3)cc2)ccc1O (stereo not drawn) ... > 100 µM
COc1cc(CNc2nc3ccccc3nc2-c2cccs2)cc(OC)c1OC ... > 100 µM

Proceed to the following item.
// TGI lookup, molecule = `COc1ccc(-c2cn(-c3ccc(Cl)cc3)c(=S)[nH]2)cc1OC` , result: > 100 µM

----------
test system: HCT-116 colon; assay: NCI tumour cell line growth inhibition, 48 h
measured quantity: TGI

The cases that follow already have their TGI on record.
COc1ccc(C(=O)/C=C2\c3ccccc3C(=O)N2C)cc1 ... > 100 µM
COc1cc(C2c3cc4c(cc3OC3(O)COC(=O)C23)OCO4)cc(OC)c1OC (stereo not given) ... > 100 µM
O=C(c1ccccn1)c1nnn2ccccc12 ... > 100 µM
c1ccc2c(c1)ccc1ncccc12 ... > 100 µM

// TGI lookup, molecule = `Cc1ccc(-c2c(C#N)c(-c3ccc([N+](=O)[O-])cc3)c(C#N)c(=O)n2NS(=O)(=O)c2ccc(C)cc2)cc1` , result: > 100 µM

----------
test system: HCC-2998 colon; assay: NCI tumour cell line growth inhibition, 48 h
Item-by-item account of TGI

The cases that follow already have their TGI on record.
COC(=O)CCC(=O)CC(=O)C(=O)Nc1ccc(F)cc1 ... > 100 µM
C#CC[C@@H]1C[C@]2(C)[C@H]3CC[C@@H]4[C@H]5[C@H](C(=C)C)CC[C@]5(C(=O)O)CC[C@@]4(C)[C@]3(C)CC[C@H]2C(C)(C)[C@H]1O ... 38.5 µM
COC(=O)C1=C(C(=O)OC)SC(=C2c3ccsc3-c3sccc32)S1 ... > 100 µM
O=C(O)c1cc(N/C=C2\C(=O)c3ccccc3OC2O)ccc1O (centres undefined) ... 50.2 µg/mL
O=C1Nc2cc(Cl)ccc2Oc2cc(Oc3ccccc3)ccc21 ... > 100 µM

// TGI lookup, compound = COC(=O)[C@@]12CC[C@]1(C(=O)OC)C1C(C)=CC(=O)O[C@@]12C (some centres undefined) , result: > 100 µM

// TGI lookup, compound = `Cc1cc2cc(Cl)ccc2nc1C(=O)c1ccccc1` , result: > 100 µM

// TGI lookup, compound = `COc1ccc(-c2cc(-c3ccc(O)cc3)nc3nc(=S)[nH]c(N)c23)cc1` , result: 31.9 µM

// TGI lookup, compound = C[C@H](CCC(=O)O[C@@H]1CC[C@@]2(C)C(CC[C@H]3[C@@H]4CC[C@H]([C@H](C)CCc5nc6ccccc6[nH]5)[C@@]4(C)CC[C@@H]32)C1)[C@H]1CC[C@H]2[C@@H]3CCC4C[C@H](O)CC[C@]4(C)[C@H]3CC[C@]12C (some centres undefined) , result: > 100 µM

// TGI lookup, compound = `Cc1ccc(-c2c(C#N)c(-c3ccc([N+](=O)[O-])cc3)c(C#N)c(=O)n2NS(=O)(=O)c2ccc(C)cc2)cc1` , result: > 100 µM

// TGI lookup, compound = COc1ccc(S(=O)(=O)N2CCN(C(=O)OCc3ccccc3)CC2C(=O)NO)cc1 (centres undefined) , result: > 25 µM

// TGI lookup, compound = `C[C@@H](C(=O)O)c1ccc(-c2ccccc2)c(F)c1` , result: > 100 µM

// TGI lookup, compound = `O=C(CC(=O)N(C(=O)c1ccccc1)c1ccc(Cl)cc1)N/N=C\c1ccccc1O` , result: > 100 µM

// TGI lookup, compound = CC(Oc1ccccc1)C(=O)NN (centres undefined) , result: > 100 µM

// TGI lookup, compound = `O=c1c2c(sc3ccccc13)NCN(CCc1ccccc1)C2` , result: 56.9 µM

// TGI lookup, compound = COc1cc(C2C(Cl)C(=O)N2NC(=O)c2ccc(NC(C)=O)cc2)cc(Br)c1O (centres undefined) , result: > 100 µM

// TGI lookup, compound = `C[N+](C)(C)CCC(=O)N1C/C(=C\c2ccccc2)C(=O)/C(=C/c2ccccc2)C1` , result: 13.2 µM

// TGI lookup, compound = CCOC(=O)C1=C(N)Oc2c(sc3c(C)cccc23)C1c1ccc(Cl)cc1 (centres undefined) , result: 6.63 µM

// TGI lookup, compound = CC1CC(=O)N2CCCNC2=C1C#N (centres undefined) , result: > 100 µM

----------
Item-by-item account of TGI
tested on: KM12 colon; experiment: NCI tumour cell line growth inhibition, 48 h

The cases that follow already have their TGI on record.
COc1ccc(OC)c(C2CCCc3c2cnc2nc(N)nc(N)c32)c1 (stereo not drawn) ... > 100 µM
CN(CCCCCl)P(=O)(OCc1ccc([N+](=O)[O-])o1)C(F)(F)c1ccc(CC(=O)N[C@@H](CC(=O)O)C(=O)N[C@@H](Cc2ccc(C(F)(F)P(=O)(OCc3ccc([N+](=O)[O-])o3)N(C)CCCCCl)cc2)C(N)=O)cc1 (stereo partly drawn) ... > 100 µM

// TGI lookup, molecule = COc1ccc(S(=O)(=O)N2CCN(C(=O)OCc3ccccc3)CC2C(=O)NO)cc1 (stereo not drawn) , result: > 25 µM

----------
test system: SNB-75 CNS; assay: NCI tumour cell line growth inhibition, 48 h
measured quantity: TGI

The cases that follow already have their TGI on record.
Fc1ccc(-c2ncn(C3CCNCC3)c2-c2ccnc(Oc3ccccc3)n2)cc1 ... > 25 µM
COc1ccc(S(=O)(=O)N2CCN(C(=O)OCc3ccccc3)CC2C(=O)NO)cc1 (centres undefined) ... > 25 µM
COc1ccc(N2C(=O)C3c4[nH]c5ccccc5c4C4CCCCCCCC4C3C2=O)cc1 (centres undefined) ... > 10 µM

Proceed to the following item.
// TGI lookup, compound = `Nc1ccccc1/C=N\Nc1ccccc1` , result: > 100 µM

----------
test system: SF-539 CNS; test: NCI tumour cell line growth inhibition, 48 h
Item-by-item account of TGI

O=C(O)c1cc(N/C=C2\C(=O)c3ccccc3OC2O)ccc1O (configuration not stated) ... 43.9 µg/mL
CN(C)CCSC(=Nc1ccccc1)N1C=COC=C1 ... > 89 µM
C[C@@H](C(=O)O)c1ccc(-c2ccccc2)c(F)c1 ... > 100 µM
COCC[N+](CCNC(=O)c1cccc2c(N)c3cccc(C)c3nc12)(CCOC)Cc1ccc([N+](=O)[O-])cc1 ... 56.7 µM
CSc1c(CC(=O)O)n(Cc2ccccc2)c2ccccc12 ... > 100 µM
O=C1NC2OCC(O)C(O1)C2O (configuration not stated) ... > 100 µM

// TGI lookup, molecule = CCOC(=O)C1=C(N)Oc2c(sc3c(C)cccc23)C1c1ccc(Cl)cc1 (configuration not stated) , result: 5.57 µM

----------
test system: OVCAR-8 ovarian; test: NCI tumour cell line growth inhibition, 48 h
measured quantity: GI50

The cases that follow already have their GI50 on record.
O=C(CSc1nc2ccc([N+](=O)[O-])cc2[nH]1)Nc1cccc(Cl)c1 ... 3.02 µM
CCCCCCCCCCCC1=NC(C)(C)CN1CCO ... 10.7 µM
Cn1cc(C2=C(c3c4n(c5ccccc35)CC(CN)C4)C(=O)NC2=O)c2ccccc21 (stereo not drawn) ... 3.92 µM
CC(C)c1ccc2c(N=Nc3ccc(S(N)(=O)=O)cc3)c(O)[nH]c2c1 ... 10.3 µM
O=C1Nc2cc(Cl)ccc2Oc2cc(Oc3ccccc3)ccc21 ... 8.81 µM

// GI50 lookup, compound = CN(CCCCCl)P(=O)(OCc1ccc([N+](=O)[O-])o1)C(F)(F)c1ccc(CC(=O)N[C@@H](CC(=O)O)C(=O)N[C@@H](Cc2ccc(C(F)(F)P(=O)(OCc3ccc([N+](=O)[O-])o3)N(C)CCCCCl)cc2)C(N)=O)cc1 (stereo partly drawn) , result: > 100 µM

// GI50 lookup, compound = `NC(=O)c1nnn(Cc2cc(Cl)c(C(=O)c3ccc(Cl)cc3)c(Cl)c2)c1N` , result: > 9.09 µM

// GI50 lookup, compound = O=C(O)c1cc(N/C=C2\C(=O)c3ccccc3OC2O)ccc1O (stereo not drawn) , result: 27.4 µg/mL

----------
Item-by-item account of TGI
test system: HT29 colon; assay: NCI tumour cell line growth inhibition, 48 h

COC1OCC(OS(=O)(=O)c2ccc(C)cc2)C(OC(=O)c2ccccc2)C1OC(=O)c1ccccc1 (stereo not drawn) ... > 100 µM
CC(C)(C)c1ccc(-c2nc3ccccc3c(=O)o2)cc1 ... > 100 µM

Proceed to the following item.
// TGI lookup, molecule = `O=C(CC(=O)N(C(=O)c1ccccc1)c1ccc(Cl)cc1)N/N=C\c1ccccc1O` , result: > 100 µM
